measurementTarget: CYP3A4 (Homo sapiens, UniProt P08684)
Sequence (P08684 whole entry): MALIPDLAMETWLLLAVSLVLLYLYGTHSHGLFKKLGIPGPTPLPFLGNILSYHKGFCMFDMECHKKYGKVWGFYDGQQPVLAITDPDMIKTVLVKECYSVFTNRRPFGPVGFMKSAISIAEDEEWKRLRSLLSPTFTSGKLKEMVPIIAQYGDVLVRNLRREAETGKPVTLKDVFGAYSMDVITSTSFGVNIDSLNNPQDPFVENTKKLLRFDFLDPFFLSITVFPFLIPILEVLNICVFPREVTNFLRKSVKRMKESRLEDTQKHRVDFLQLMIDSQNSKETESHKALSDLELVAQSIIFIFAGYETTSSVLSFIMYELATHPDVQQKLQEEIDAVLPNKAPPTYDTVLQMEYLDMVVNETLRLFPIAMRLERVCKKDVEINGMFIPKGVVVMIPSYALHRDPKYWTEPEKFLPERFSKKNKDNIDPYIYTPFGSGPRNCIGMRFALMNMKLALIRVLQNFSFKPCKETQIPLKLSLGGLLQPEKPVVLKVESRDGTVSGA
testDescription: Inhibition of human liver microsomal CYP3A4 using midazolam as substrate at 10 uM preincubated for 5 mins followed by NADPH addition measured after 5 mins by LC-MS/MS analysis
Type: ADME
conditionSummary: liver microsomes, probe midazolam
readoutType: inhibition at 5 min, 10 µM

The recorded inhibition at 5 min, 10 µM for Cl.Fc1cccc(CCCNCCc2ccnc(-n3ccnc3)n2)c1 is > 70%

* * *

testDescription: Inhibition of calmodulin-dependent bovine neuronal NOS using [3H]-arginine as substrate assessed as citrulline formation after 30 mins
Set-up: species or system Bos taurus
readoutType: pIC50
Reminder that pIC50 means the negative base-10 logarithm of the concentration expressed in mol/L.

The recorded pIC50 for c1ccc(-n2ccnc2)cc1 is 4.60

The recorded pIC50 for c1c[nH]cn1 [IMIDAZOLE] is 3.70
